Assay: chemical genetic growth profiling, strain panel (AID 1159580);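 further: tested at 20 µM; growth read once vehicle control cultures reached saturation at 30 °C; 1 = growth at the plate median or of vehicle wells; lower values mean less growth of the strain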
Conditions: S. cerevisiae deletion strains, growth OD, locus YPL055C, strain LGE1, active compounds read low
Screen size: about 5,500 compounds; about 2,000 (36%) were called active. Another 18% or so got no clear call; they are omitted. Some of the results follow.
Below is a list of entries, each paired with its recorded normalized growth value.
API doc: respond with a numeric literal and nothing else, no unit.

Qu. Reported normalized growth for CC12CCC3C4CCC(=O)C=C4CCC3C1CCC2=O (stereo not drawn) : what is it?
Ans. 1.02

Qu. Reported normalized growth for CC(C)CC(N(C)C)C1(c2ccc(Cl)cc2)CCC1 (stereo not drawn) : what is it?
Ans. 0.999

Qu. Reported normalized growth for CC1=NS(=O)(=O)c2cc(Cl)ccc2N1 : what is it?
Ans. 0.987

Qu. Reported normalized growth for Cc1noc(C)c1NC(N)=O : what is it?
Ans. 0.975

Qu. Reported normalized growth for CNC(=O)Oc1ccc2c(c1)C1(C)CCN(C)C1N2C (stereo not drawn) : what is it?
Ans. 0.987

Qu. Reported normalized growth for O=C(COc1ccc(Cl)cc1)N1CCN(Cc2ccc3c(c2)OCO3)CC1 : what is it?
Ans. 0.998

Qu. Reported normalized growth for Oc1ccc2c3c1O[C@H]1c4[nH]c5ccccc5c4C[C@@]4(O)C(C2)N(CC2CC2)CCC314 (stereo partly drawn) : what is it?
Ans. 0.987
